Values were extracted from ChEMBL document CHEMBL1201862.

- Test system: UO-31
- method: NCI tumour cell line growth inhibition, 48 h
Calls of active or inactive are those of the source. Rule as the data show it: active = GI50 up to about 1.1 µM and inactive = higher. Non-standard residues stand in square brackets, D forms with d. Residues, ends and D or L forms follow the SMILES beside them. ξ: configuration not given here. *: point of attachment. X18 = COC1=CC(=O)N(C(=O)C(O*)C(C)C)C1Cc1ccccc1; ξNMe2Val = CC(C)C(C(=O)*)N(C)C; NMeV = CN[CH](C(=O)O)C(C)C
Possible outcomes: active, inactive

molecule	answer_label
CC(=O)/C(=C\c1ccco1)C(=O)Nc1ccccc1	inactive
O=c1c2ccccc2n2nnc3ccc(NCCCNCCNCCCNc4ccc5nnn6c7ccccc7c(=O)c4c56)c1c32	inactive
Cc1c(NC(=O)CCCl)c(=O)oc2c(C)c3occc(=O)c3cc12	inactive
COC(=O)/C=C\C(C#N)(C#N)/N=C/c1ccc(OC)cc1	inactive
COC1=CC(=O)N(C(=O)C(OC(=O)C2CCCN2C(=O)C2CCCN2C(=O)C(C(C)C)N(C)C(=O)C(NC(=O)C(C(C)C)N(C)C)C(C)C)C(C)C)C1Cc1ccccc1 (centres undefined) (ξNMe2Val-V[NMeV]PP-X18; configuration not given here)	active
CCOC(=O)/C(=C\NC#N)c1nc2ccccc2[nH]1	inactive
Cn1ccnc1CC(C)(O)c1ccccc1 (centres undefined)	inactive
CCOC(=O)C(=CNC(Cc1c[nH]c2ccccc12)C(=O)OC)C(=O)OCC (centres undefined)	inactive
C=CCC1(CN(C)C)CC/C(=C\c2ccc3c(c2)OCO3)C1=O (centres undefined)	inactive

====

- System: MDA-N
- method: NCI tumour cell line growth inhibition, 48 h
Active and inactive are the calls of the source. Rule as the data show it: active = GI50 up to about 1.1 µM and inactive = higher. Non-standard residues stand in square brackets, D forms with d. Residues, ends and D or L forms follow the SMILES beside them. ξ: configuration not given here. *: point of attachment. X18 = COC1=CC(=O)N(C(=O)C(O*)C(C)C)C1Cc1ccccc1; ξNMe2Val = CC(C)C(C(=O)*)N(C)C; NMeV = CN[CH](C(=O)O)C(C)C
Possible outcomes: 1.0 = active, 0.0 = inactive

compound	answer_label
CC(C)CN(CC#N)CC(C)C	0.0
COC(=O)C1=COC(C)C2C[n+]3ccc4c([nH]c5ccccc54)c3CC12 (stereo not given)	0.0
COc1cc(O)c2c(c1)OCC1(Cc3cc(OC)c(OC)cc31)C2=O (stereo not given)	0.0
CC(=O)O[C@H]1C(=O)[C@@]2(C)[C@H]([C@H](OC(=O)c3ccccc3)[C@]3(O)C[C@H](OC(=O)[C@H](O)[C@@H](NC(=O)c4ccccc4)c4ccccc4C)C(C)=C1C3(C)C)[C@]1(OC(C)=O)CO[C@@H]1C[C@@H]2O	1.0
CN(C(=S)Cc1ccc(Cl)c(Cl)c1)C1CCCC[C@@H]1N1CCCC1 (stereo not given in full)	0.0
Cc1cc(Cl)ccc1/N=N/C(=O)NNc1ccc(Cl)cc1C	0.0
N#C[BH2-][n+]1ccc(C(=O)NNCc2ccc(F)cc2)cc1	0.0
CCOC(=O)c1cn2c(ccc3sc4ccccc4c(=O)c32)n1	0.0
COc1cccc(/C=C2\N=C(c3ccccc3)OC2=O)c1	0.0
NCCCCC(N)C(=O)NCCNc1ccc(NCCNC(=O)C(N)CCCCN)c2c1C(=O)c1ccccc1C2=O (stereo not given)	0.0
C[Si](C)(OCCS(=O)(=O)O)C1(Cc2cccc3ccccc23)S(=O)(=O)OCCOS1(=O)=O	0.0
COc1ccc(NC(=O)CSc2nc(C)nc3c2sc(=S)n3-c2ccccc2)cc1	0.0
Cc1ccc(S(=O)(=O)N2CCSCCSCCSCCSCC2)cc1	0.0
CCSCC(N)C(=O)O (stereo not given)	0.0
Cc1ccc(C(=O)Oc2ccccc2)cc1/N=N/N(C)C	0.0
COc1ccc2c(c1)CC1(O)COc3cc(OC)ccc3C1O2 (stereo not given)	0.0
O=C(O)C1C(C(=O)O)C(C(=O)O)C1C(=O)O (stereo not given)	0.0
Cn1ccnc1CC(C)(O)c1ccccc1 (stereo not given)	0.0
COC1=CC(=O)N(C(=O)C(OC(=O)C2CCCN2C(=O)C2CCCN2C(=O)C(C(C)C)N(C)C(=O)C(NC(=O)C(C(C)C)N(C)C)C(C)C)C(C)C)C1Cc1ccccc1 (stereo not given) (ξNMe2Val-V[NMeV]PP-X18; configuration not given here)	1.0
Cc1nc(Cl)c(CBr)c(Cl)n1	0.0

====

Reported GI50 by item:
- Test system: A498
- method: NCI tumour cell line growth inhibition, 48 h
The source made the active and inactive calls. No stated cut-off is given here; in the data, active = GI50 up to about 1.1 µM and inactive = higher.
property_measured: GI50

>>> print(df.to_string())
                                   compound  property_measured             reported
0  N#CCCN(CCCN(C(=O)Nc1ccc(NC(=O)N(CCCN(CCC#N)C(N)=O)c2ccccc2)cc1)c1ccccc1)C(N)=O               GI50  > 100 µM (inactive)
1  O=C(c1ccccc1)N1C(=O)N(c2ccccc2)C(=N/c2ccccc2)/C1=N\c1ccccc1               GI50  > 100 µM (inactive)
2  O=[N+]([O-])/C(C(Cl)=C(Cl)Cl)=C(\SCc1ccccc1)N1CCCCC1               GI50   31.9 µM (inactive)
3  C[Si](C)(OCCS(=O)(=O)O)C1(Cc2cccc3ccccc23)S(=O)(=O)OCCOS1(=O)=O               GI50   15.9 µM (inactive)
4       Cc1c2cc[n+](C)cc2c(C)c2c1oc1ccccc12               GI50   42.9 µM (inactive)
5  O=c1c(C(c2ccc(-c3ccccc3)cc2)c2c(O)oc3ccccc3c2=O)c(O)oc2ccccc12               GI50     31 µM (inactive)
6         CCSCC(N)C(=O)O (stereo not given)               GI50  > 100 µM (inactive)
7       Cc1ccc(Nc2nc3[nH]ccc3c(=O)[nH]2)cc1               GI50   18.1 µM (inactive)
8   CCN(CC)CCCNC(=O)c1ccc([N+](=O)[O-])cc1O               GI50  > 100 µM (inactive)
9                    CC1=C(C)C1[N+](=O)[O-]               GI50   97.7 µM (inactive)

====

- Test system: LXFL 529
- method: NCI tumour cell line growth inhibition, 48 h
Activity calls are given as the source filed them. Rule as the data show it: active = GI50 up to about 1.1 µM and inactive = higher.
Reported GI50 by item:
property_measured: GI50

                                   molecule  property_measured             reported
0                 N=S(=O)(c1ccccc1)c1ccccc1               GI50  > 100 µM (inactive)
1    COC(=O)c1nn(C(=N)c2ccc(Cl)cc2)c2c1CCC2               GI50  > 100 µM (inactive)
2  C=CCC1(CN(C)C)CC/C(=C\c2ccc3c(c2)OCO3)C1=O (stereo not given)               GI50   34.5 µM (inactive)
3  CCCOc1nc(N)c2cnn(C3CCCCO3)c2n1 (stereo not given)               GI50  > 100 µM (inactive)
4  O=C(Nc1cc(Cl)c(Cl)cc1Cl)C(=O)C(C(=O)c1ccc(Cl)c(Cl)c1)C1OC(=O)c2ccccc21 (stereo not given)               GI50   10.9 µM (inactive)
5  O=C1OC(c2ccccc2)=N/C1=C/N1CCCC1C(=O)O (stereo not given)               GI50  > 100 µM (inactive)
6       Cc1c2cc[n+](C)cc2c(C)c2c1oc1ccccc12               GI50   1.54 µM (inactive)
7   CCN(CC)CCCNC(=O)c1ccc([N+](=O)[O-])cc1O               GI50  > 100 µM (inactive)
8  COC(=O)CC(NC(=O)OCc1ccccc1)C(C(C)=O)C(=O)OCc1ccccc1 (stereo not given)               GI50   5.48 µM (inactive)
9         N#C/C(=C\c1cc(O)c(O)c(O)c1)C(N)=O               GI50  > 100 µM (inactive)

====

- Tested on: OVCAR-4
- method: NCI tumour cell line growth inhibition, 48 h
The source made the active and inactive calls. Cut-off read from the data, not from the text of the source: active = GI50 up to about 1.1 µM and inactive = higher.
property_measured: GI50

>>> print(df.to_string())
                                   compound  target_or_test_system              reported
0  CCn1c2nc(=O)n(CCCCCCCCSC(c3ccccc3)(c3ccccc3)c3ccccc3)c(=O)c-2nc2ccccc21                OVCAR-4    9.53 µM (inactive)
1  C#CCCOC(=O)CC1=C(C)/C(=C/c2ccc([S+](C)[O-])cc2)c2ccc(F)cc21 (stereo unspecified)                OVCAR-4    19.2 µM (inactive)
2       Cc1ccc(C(=O)Oc2ccccc2)cc1/N=N/N(C)C                OVCAR-4  > 86.9 µM (inactive)
3  C=C(C)C(=O)N1c2ccc(OC)cc2CC1C(=O)OCC (stereo unspecified)                OVCAR-4   > 100 µM (inactive)
4  COc1ncn(C2C=C(CO)C(O)C2O)c(=O)n1 (stereo unspecified)                OVCAR-4   > 100 µM (inactive)
5    NC(=O)CC(N)C(N)=O (stereo unspecified)                OVCAR-4   > 100 µM (inactive)
